Biological target: FLNA pentapeptide of SEQ ID NO: 1 (Bn-VAKGL) (Homo sapiens, UniProt P21333)
Assay: FITC-NLX-based FLNA screening assay (inhibition of FITC-naloxone binding to Bn-VAKGL on streptavidin plates)
Details: read-out: Percent Binding Inhibition, FLNA-binding compound 0.1 μM; 10 nM FITC-NLX
Listed here: items and their measured inhibition at 0.1 µM.
ASSAY METRIC: inhibition at 0.1 µM (%)

molecule="CC1CCC(C(C)C)C(OCC(O)CN2CCCCC2C)C1 (centres unmarked)" target_or_system="FLNA pentapeptide of SEQ ID NO: 1 (Bn-VAKGL) (Homo sapiens, UniProt P21333)" assay_metric="inhibition at 0.1 µM" numeric_result=46.2
molecule=CC(C)c1ccc(S(=O)(=O)N2CCC3(CC2)OCCN3S(=O)(=O)c2ccc(C(C)C)cc2)cc1 target_or_system="FLNA pentapeptide of SEQ ID NO: 1 (Bn-VAKGL) (Homo sapiens, UniProt P21333)" assay_metric="inhibition at 0.1 µM" numeric_result=46.3
molecule=O=S(=O)(c1ccc(Br)cc1)N1CCC2(CC1)OCCN2S(=O)(=O)c1ccc(Br)cc1 target_or_system="FLNA pentapeptide of SEQ ID NO: 1 (Bn-VAKGL) (Homo sapiens, UniProt P21333)" assay_metric="inhibition at 0.1 µM" numeric_result=41.4
molecule=O=S(=O)(c1ccc(-c2ccccc2)cc1)N1CCC2(CC1)OCCN2S(=O)(=O)c1ccc(-c2ccccc2)cc1 target_or_system="FLNA pentapeptide of SEQ ID NO: 1 (Bn-VAKGL) (Homo sapiens, UniProt P21333)" assay_metric="inhibition at 0.1 µM" numeric_result=42.7
molecule=NS(=O)(=O)c1ccc(S(=O)(=O)N2CCC3(CC2)OCCN3S(=O)(=O)c2ccc(S(N)(=O)=O)cc2)cc1 target_or_system="FLNA pentapeptide of SEQ ID NO: 1 (Bn-VAKGL) (Homo sapiens, UniProt P21333)" assay_metric="inhibition at 0.1 µM" numeric_result=38.3
molecule=O=C(c1ccc([N+](=O)[O-])cc1)N1CCC2(CC1)OCCN2C(=O)c1ccc([N+](=O)[O-])cc1 target_or_system="FLNA pentapeptide of SEQ ID NO: 1 (Bn-VAKGL) (Homo sapiens, UniProt P21333)" assay_metric="inhibition at 0.1 µM" numeric_result=50.5
molecule="COc1ccccc1CC(=O)CC1c2c(cc3c(c2OC)OCO3)CC[N+]1(C)C (centres unmarked)" target_or_system="FLNA pentapeptide of SEQ ID NO: 1 (Bn-VAKGL) (Homo sapiens, UniProt P21333)" assay_metric="inhibition at 0.1 µM" numeric_result=47.3
molecule="COc1ccc(S(=O)(=O)N2CCOC23CCN(CC2CC2)CC3)cc1 [Compound C0090M]" target_or_system="FLNA pentapeptide of SEQ ID NO: 1 (Bn-VAKGL) (Homo sapiens, UniProt P21333)" assay_metric="inhibition at 0.1 µM" numeric_result=52.5
molecule="O=C1CN(C2CCc3ccccc3C2)C2(CCN(S(=O)(=O)c3ccccc3)CC2)N1 (centres unmarked) [C0136M(P5)]" target_or_system="FLNA pentapeptide of SEQ ID NO: 1 (Bn-VAKGL) (Homo sapiens, UniProt P21333)" assay_metric="inhibition at 0.1 µM" numeric_result=55.2
molecule="COc1cc(CC(=O)CC2c3c(cc4c(c3OC)OCO4)CC[N+]2(C)C)cc(OC)c1OC (centres unmarked)" target_or_system="FLNA pentapeptide of SEQ ID NO: 1 (Bn-VAKGL) (Homo sapiens, UniProt P21333)" assay_metric="inhibition at 0.1 µM" numeric_result=40.3
molecule="COc1c2c(cc3c1C(CC(=O)c1ccc(C#N)cc1)[N+](C)(C)CC3)OCO2 (centres unmarked)" target_or_system="FLNA pentapeptide of SEQ ID NO: 1 (Bn-VAKGL) (Homo sapiens, UniProt P21333)" assay_metric="inhibition at 0.1 µM" numeric_result=48.8
molecule="COc1ccccc1CCC(=O)CC1c2c(cc3c(c2OC)OCO3)CC[N+]1(C)C (centres unmarked)" target_or_system="FLNA pentapeptide of SEQ ID NO: 1 (Bn-VAKGL) (Homo sapiens, UniProt P21333)" assay_metric="inhibition at 0.1 µM" numeric_result=68.2
molecule="COc1cc(F)ccc1C(=O)CC1c2c(cc3c(c2OC)OCO3)CC[N+]1(C)C (centres unmarked)" target_or_system="FLNA pentapeptide of SEQ ID NO: 1 (Bn-VAKGL) (Homo sapiens, UniProt P21333)" assay_metric="inhibition at 0.1 µM" numeric_result=53.1
molecule="COc1ccc(C(=O)CC2c3c(cc4c(c3OC)OCO4)CC[N+]2(C)C)c(F)c1 (centres unmarked)" target_or_system="FLNA pentapeptide of SEQ ID NO: 1 (Bn-VAKGL) (Homo sapiens, UniProt P21333)" assay_metric="inhibition at 0.1 µM" numeric_result=46.7
molecule="COc1cccc(CC(=O)CC2c3c(cc4c(c3OC)OCO4)CC[N+]2(C)C)c1OC (centres unmarked)" target_or_system="FLNA pentapeptide of SEQ ID NO: 1 (Bn-VAKGL) (Homo sapiens, UniProt P21333)" assay_metric="inhibition at 0.1 µM" numeric_result=50.1
molecule=O=S(=O)(c1ccc(Br)cc1F)N1CCC2(CC1)OCCN2S(=O)(=O)c1ccc(Br)cc1F target_or_system="FLNA pentapeptide of SEQ ID NO: 1 (Bn-VAKGL) (Homo sapiens, UniProt P21333)" assay_metric="inhibition at 0.1 µM" numeric_result=48
molecule="COc1ccc(NC(=O)N2CCC3(CC2)OCCN3C(=O)Nc2ccc(OC)cc2)cc1 [Compound C0151M]" target_or_system="FLNA pentapeptide of SEQ ID NO: 1 (Bn-VAKGL) (Homo sapiens, UniProt P21333)" assay_metric="inhibition at 0.1 µM" numeric_result=51.7
molecule="CC1CCC(C(C)C)C(OCC(O)CN2CCSCC2)C1 (centres unmarked)" target_or_system="FLNA pentapeptide of SEQ ID NO: 1 (Bn-VAKGL) (Homo sapiens, UniProt P21333)" assay_metric="inhibition at 0.1 µM" numeric_result=31.6
molecule=O=S(=O)(c1ccc(Br)c(C(F)(F)F)c1)N1CCC2(CC1)OCCN2S(=O)(=O)c1ccc(Br)c(C(F)(F)F)c1 target_or_system="FLNA pentapeptide of SEQ ID NO: 1 (Bn-VAKGL) (Homo sapiens, UniProt P21333)" assay_metric="inhibition at 0.1 µM" numeric_result=47.7
molecule="CC1CCC(C(C)C)C(OCC(O)CN2CCC2)C1 (centres unmarked)" target_or_system="FLNA pentapeptide of SEQ ID NO: 1 (Bn-VAKGL) (Homo sapiens, UniProt P21333)" assay_metric="inhibition at 0.1 µM" numeric_result=46.8
molecule="COc1c2c(cc3c1C(CC(=O)/C=C/c1ccc(Cl)cc1)[N+](C)(C)CC3)OCO2 (centres unmarked)" target_or_system="FLNA pentapeptide of SEQ ID NO: 1 (Bn-VAKGL) (Homo sapiens, UniProt P21333)" assay_metric="inhibition at 0.1 µM" numeric_result=41
molecule=O=S(=O)(c1ccccc1)N1CCC2(CC1)OCCN2S(=O)(=O)c1ccccc1 target_or_system="FLNA pentapeptide of SEQ ID NO: 1 (Bn-VAKGL) (Homo sapiens, UniProt P21333)" assay_metric="inhibition at 0.1 µM" numeric_result=43.8
molecule="COc1ccc(CCC(=O)CC2c3c(cc4c(c3OC)OCO4)CC[N+]2(C)C)cc1 (centres unmarked)" target_or_system="FLNA pentapeptide of SEQ ID NO: 1 (Bn-VAKGL) (Homo sapiens, UniProt P21333)" assay_metric="inhibition at 0.1 µM" numeric_result=33.7
molecule=O=S(=O)(c1ccc(C(F)(F)F)cc1)N1CCC2(CC1)OCCN2S(=O)(=O)c1ccc(C(F)(F)F)cc1 target_or_system="FLNA pentapeptide of SEQ ID NO: 1 (Bn-VAKGL) (Homo sapiens, UniProt P21333)" assay_metric="inhibition at 0.1 µM" numeric_result=39.5
molecule="OC(COc1ccc(Br)c(F)c1)CN1CCSCC1 (centres unmarked)" target_or_system="FLNA pentapeptide of SEQ ID NO: 1 (Bn-VAKGL) (Homo sapiens, UniProt P21333)" assay_metric="inhibition at 0.1 µM" numeric_result=36.6
molecule="CC(=O)c1ccc(S(=O)(=O)N2CCOC23CCN(C)CC3)cc1 [Compound C0093M]" target_or_system="FLNA pentapeptide of SEQ ID NO: 1 (Bn-VAKGL) (Homo sapiens, UniProt P21333)" assay_metric="inhibition at 0.1 µM" numeric_result=49.9
molecule=COc1ccc(S(=O)(=O)N2CCOC23CCN(S(=O)(=O)c2ccc(C(C)=O)cc2)CC3)cc1 target_or_system="FLNA pentapeptide of SEQ ID NO: 1 (Bn-VAKGL) (Homo sapiens, UniProt P21333)" assay_metric="inhibition at 0.1 µM" numeric_result=35.2
molecule=O=S(=O)(c1ccc(C(F)(F)F)cc1Br)N1CCC2(CC1)OCCN2S(=O)(=O)c1ccc(C(F)(F)F)cc1Br target_or_system="FLNA pentapeptide of SEQ ID NO: 1 (Bn-VAKGL) (Homo sapiens, UniProt P21333)" assay_metric="inhibition at 0.1 µM" numeric_result=49.6
molecule=COc1ccc(C(=O)N2CCOC23CCN(S(=O)(=O)c2ccc(OC)cc2)CC3)cc1 target_or_system="FLNA pentapeptide of SEQ ID NO: 1 (Bn-VAKGL) (Homo sapiens, UniProt P21333)" assay_metric="inhibition at 0.1 µM" numeric_result=38.2
molecule="CC(=O)c1ccc(S(=O)(=O)N2CC(CN(C)C)OC23CCNCC3)cc1 (centres unmarked) [Compound C0118M]" target_or_system="FLNA pentapeptide of SEQ ID NO: 1 (Bn-VAKGL) (Homo sapiens, UniProt P21333)" assay_metric="inhibition at 0.1 µM" numeric_result=61.4
molecule="COc1c2c(cc3c1C(CC(=O)Cc1ccccc1C)N(C)CC3)OCO2 (centres unmarked)" target_or_system="FLNA pentapeptide of SEQ ID NO: 1 (Bn-VAKGL) (Homo sapiens, UniProt P21333)" assay_metric="inhibition at 0.1 µM" numeric_result=37.3
molecule="CC1CCC(C(C)C)C(OCC(O)CN2CCC(=O)CC2)C1 (centres unmarked)" target_or_system="FLNA pentapeptide of SEQ ID NO: 1 (Bn-VAKGL) (Homo sapiens, UniProt P21333)" assay_metric="inhibition at 0.1 µM" numeric_result=39

Where these numbers come from: patent US10363239B2
